# Kd per record follows
- study-target: T1, EsCas13d, nuclease-dead (Eubacterium siraeum, UniProt B0MS50, R295A;H300A;R849A;H854A)
- T1 sequence: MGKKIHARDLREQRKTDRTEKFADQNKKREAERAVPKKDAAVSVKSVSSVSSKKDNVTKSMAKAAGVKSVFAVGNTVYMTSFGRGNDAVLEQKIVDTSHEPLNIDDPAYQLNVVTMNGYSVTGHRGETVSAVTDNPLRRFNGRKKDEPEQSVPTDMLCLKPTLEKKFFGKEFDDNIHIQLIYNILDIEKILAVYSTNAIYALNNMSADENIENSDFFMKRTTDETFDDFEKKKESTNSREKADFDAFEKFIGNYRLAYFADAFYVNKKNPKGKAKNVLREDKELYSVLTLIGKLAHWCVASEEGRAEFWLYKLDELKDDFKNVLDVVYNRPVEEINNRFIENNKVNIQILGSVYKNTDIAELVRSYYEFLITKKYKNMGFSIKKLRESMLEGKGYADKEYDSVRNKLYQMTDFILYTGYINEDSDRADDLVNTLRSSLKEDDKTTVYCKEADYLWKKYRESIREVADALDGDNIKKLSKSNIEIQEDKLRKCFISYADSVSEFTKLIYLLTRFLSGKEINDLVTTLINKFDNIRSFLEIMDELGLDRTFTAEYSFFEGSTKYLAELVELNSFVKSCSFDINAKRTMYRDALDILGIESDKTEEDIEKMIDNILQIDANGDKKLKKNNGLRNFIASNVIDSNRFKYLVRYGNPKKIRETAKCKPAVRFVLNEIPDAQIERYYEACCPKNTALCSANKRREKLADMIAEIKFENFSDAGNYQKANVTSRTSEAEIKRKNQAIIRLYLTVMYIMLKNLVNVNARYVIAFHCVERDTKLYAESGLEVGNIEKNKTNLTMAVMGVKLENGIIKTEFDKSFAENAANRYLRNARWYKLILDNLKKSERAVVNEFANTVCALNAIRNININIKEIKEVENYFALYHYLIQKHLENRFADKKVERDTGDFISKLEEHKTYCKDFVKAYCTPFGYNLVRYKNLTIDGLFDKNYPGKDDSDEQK
- run-description: crRNA (strand 1, pre-loaded); Mg2+; 40 mM Tris-HCl pH 7.5, 150 mM NaCl, 6 mM MgCl2, 1 mM DTT, 0.1% Tween-20, 0.2 mg/ml BSA; 25 C; 10 min per concentration, then washed
- condition-set: tags: His6-TwinStrep-SUMO cleaved; N-terminal SNAP kept (SNAP-Surface 488); label: 3' end held by stalled T7 RNA polymerase
State just the number; it will be interpreted in nM.

Illustrative cases are given below, each with its answer.
binder | measurement-units | Kd
target 2 MT 5'PFS CUC 3'PFS ACU (mixed) RNA 1: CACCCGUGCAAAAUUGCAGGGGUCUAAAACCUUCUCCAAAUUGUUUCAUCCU RNA 2: GGGAAUGGAUCCACAUCUACGAAUUCCUCAGGAUGAAACAAUUUGGAGAAGACUAGAUCGGAAGAGCACACGU | nM | 2.14
target 1 insA 3' of 19,insC 3' of 8 (mixed) RNA 1: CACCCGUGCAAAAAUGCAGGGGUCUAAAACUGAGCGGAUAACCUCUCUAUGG RNA 2: GGGAAUGGAUCCACAUCUACGAAUUCGUACCAUAAGAGAGGUUAUCCCGCUCACCGAGAUCGGAAGAGCACACGU | nM | 34

Okay, now this binder:
State the recorded Kd for this entry: target 3 G4U,U21G (mixed) RNA 1: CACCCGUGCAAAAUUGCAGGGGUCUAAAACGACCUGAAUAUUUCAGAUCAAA RNA 2: GGGAAUGGAUCCACAUCUACGAAUUCGUUUGUGAUCUGAAAUAUUCAUGUCUGCAGAUCGGAAGAGCACACGU
65

Value source: paper PMC10786891
